- test: NCI Yeast Anticancer Drug Screen. Data for the bub3 strain (AID 167)
- applied_conditions: S. cerevisiae bub3 mutant strain, at 100.0 µM, active compounds read high
About 79,000 compounds went through this panel and 15% of them were active in at least one assay; those are over-represented in the sample as a whole.
Param threshold (60%) applies to growth inhibition; output class 1 when value >= threshold, class 0 when value < threshold.

c1ccc2c(c1)ccc1c3ccncc3ccc21: class 1
C/C(=N\NC(=S)NNC(=S)N(C)c1ccccc1)c1ccccn1: class 1
Clc1c(Cl)c(Cl)c2n[nH]nc2c1Cl: class 1
COC(=O)c1cccc(C)c1C(=O)c1c(C)cc(C)cc1C: class 1
CC(C)(C)c1ccc(O)c(C(c2ccc([N+](=O)[O-])cc2)c2cc(C(C)(C)C)ccc2O)c1: class 1
CC(=O)O[C@H]1C(=O)[C@@]2(C)[C@H]([C@H](OC(=O)c3ccccc3)[C@]3(O)C[C@H](OC(=O)[C@H](O)[C@@H](NC(=O)c4ccccc4)c4ccccc4)C(C)=C1C3(C)C)[C@]1(OC(C)=O)CO[C@@H]1C[C@@H]2O: class 0
COc1ccc(C(C#N)=C2C=CC(=NO)C=C2)cc1: class 1
C/C(=N\NC(=S)NC1CCCC1)c1ccccn1: class 1

Next, consider the following compound.
**Query** Identify whether the reported growth inhibition of the following compound is 60% or greater: `CC(=O)c1cc2c(Cl)cc(Cl)cc2oc1=O`
**Result** class 0

###

- test: NCI Yeast Anticancer Drug Screen. Data for the rad50EPP+ strain (AID 151);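 note: 0% = growth of vehicle-treated control cultures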
- applied_conditions: S. cerevisiae rad50 mutant strain, at 3.7 µM, active compounds read high
- Description: Growth inhibition of yeast strains with defined genetic alterations is measured as a screen for potential anti-cancer activity. Selected strains with alterations in DNA damage repair or cell cycle control were exposed to compounds and growth inhibition was measured relative to vehicle treated controls. The strain used in this assay is rad50EPP+
This is part of a sample that, as a whole, favours compounds with a hit. Of some 79,000 tested, about 15% had one in any assay.
Outcome: condition met for growth inhibition of at least 10%; condition not met for anything lower.

Past entries and their recorded results:
CC1C(C#N)(C#N)C(C#N)=C(N)C1(Cl)[N+](=O)[O-] (stereo unspecified): condition met
CN=C(N)N/N=C(\C)c1ccc2oc3ccc(/C(C)=N/NC(N)=NC)cc3c2c1: condition met
N#CSC1CCCCNC1=O (stereo unspecified): condition met
O=C1c2cccc3cc([N+](=O)[O-])cc(c23)C(=O)N1CCN1CCCC1: condition met
CCCCOC(=O)CSSCC(=O)OCCCC: condition not met

**Query** Assess whether reported growth inhibition for `O=C1CC(=O)N(C2CCCCC2)C(=O)N1c1ccccc1S(=O)(=O)Oc1ccccc1` sits at 10% or higher.
**Result** condition not met

**Query** Reported growth inhibition at or above 10%? `CN(C)c1ccc(/C=C/c2ccnc3ccccc23)cc1N`
**Result** condition not met

###

In this section we review reported growth inhibition values for a set of molecules.
- test: NCI Yeast Anticancer Drug Screen. Data for the mec2-1 strain (AID 157)
- applied_conditions: S. cerevisiae mec2-1 strain, at 1.2 µM, active compounds read high
This is part of a sample that, as a whole, favours compounds with a hit. Of some 79,000 tested, about 15% had one in any assay.
Response body: numeric value in %, unit text excluded.

Worked cases, growth inhibition given:
COc1ccc(N=Nc2ccc3oc(=O)c(C(=O)Nc4ccccc4)cc3c2)cc1: -18
Cc1ccccc1NC(=O)Cc1csc(N/N=C2\NC(=O)/C(=C/c3cccc([N+](=O)[O-])c3)S2)n1: 4
C=C(CCCO)[C@@H]1CC[C@@](C)(O)[C@H]1C: -53
CC1CCC2(C(=O)O)CCC3(C)C(=CCC4C5(C)CC(O)C(O)C(C)(CO)C5C(O)CC43C)C2C1C (stereo unspecified): -15
CCOP1(=O)C=C(Sc2ccc([N+](=O)[O-])cc2[N+](=O)[O-])C(C)(C)O1 (stereo unspecified): 7

Consider the additional molecule presented here.
Reported growth inhibition ( `Cc1cccc(/C=N\NC(=S)N2CCCCC2)n1` ) = -41

The origin of these recorded values is PubChem BioAssay (NCI).
